System: M. tuberculosis BioA-TetON underexpression strain, growth inhibition
ASSAY_COMMENT: antitubercular growth inhibition, bioa underexpression strain, cell based, dry powder, single point (AID 743352)
Active and inactive are the calls of the source. How the calls were made is not given here.
Thanks in advance; please answer with one of these: active, inactive

The examples below pair each entry with its known result.
{"columns": ["SMILES_RECORD", "CATEGORY"],
 "data": [
  ["CC(=O)c1ccc(N2CCN(C(=O)c3ccc4c(c3)OCO4)[C@H](C)C2)cc1", "active"],
  ["CN1c2ccc(-c3cccc(F)c3)cc2[C@@H]2[C@@H](CCN2C(=O)c2ccc3c(c2)OCO3)[C@H]1CO", "inactive"],
  ["CCC(=O)N1CC[C@@H]2[C@@H](CO)N(C)c3ccc(-c4ccc(F)cc4)cc3[C@@H]21", "inactive"],
  ["CC(=O)c1ccc(NCCNC(=O)c2ccc3c(c2)OCO3)cc1", "inactive"],
  ["CN1c2ccc(-c3ccc(F)cc3)cc2[C@H]2[C@H](CCN2C(=O)Cc2cccnc2)[C@H]1CO", "inactive"]
]}

IN: What outcome does the record of this test show for CN1c2ccc(-c3ccc(F)cc3)cc2[C@H]2[C@H](CCN2C(=O)Cc2ccccn2)[C@H]1CO ?
OUT: inactive

====

Test system: M. tuberculosis BioA-TetON underexpression strain, growth inhibition
ASSAY_COMMENT: antitubercular growth inhibition, bioa underexpression strain, cell based, dry powder, single point (AID 743352)
Calls of active or inactive are those of the source. How the calls were made is not given here.
Thanks in advance; please answer with one of these: YES (active), NO (inactive)

{"columns": ["SMILES_RECORD", "CATEGORY"],
 "data": [
  ["CC(=O)c1ccc(N2CCN(C(=O)c3ccc4c(c3)OCO4)CC2)cc1", "YES"],
  ["CNC(=O)c1ccc(N2CCN(C(=O)c3ccc4c(c3)OCO4)CC2)cc1", "NO"],
  ["COc1ccccc1C(=O)N1CCN(c2ccc(C(C)=O)cc2)CC1", "NO"],
  ["CN1c2ccc(-c3cccc(F)c3)cc2[C@H]2[C@H](CCN2C(=O)Cc2ccccc2)[C@H]1CO", "NO"]
]}

Now for a further molecule.
IN: What outcome does the record of this test show for CN1c2ccc(-c3cccc(F)c3)cc2[C@H]2[C@H](CCN2C(=O)CCCCCCN)[C@H]1CO ?
OUT: NO

====

System: M. tuberculosis BioA-TetON underexpression strain, growth inhibition
ASSAY_COMMENT: antitubercular growth inhibition, bioa underexpression strain, cell based, dry powder, single point (AID 743352)
Calls of active or inactive are those of the source. The rule behind the calls is not given here.
Recorded measurements of IC90, one per entry

{"columns": ["SMILES_RECORD", "IC90"],
 "data": [
  ["CCCCCCCC(=O)N1CC[C@@H]2[C@@H](CO)N(C)c3ccc(-c4cccc(F)c4)cc3[C@@H]21", "> 50 µM (inactive)"]
]}

IN: Given the compound CC(=O)c1ccc(N2CC3(CN(C(=O)c4ccc5c(c4)OCO5)C3)C2)cc1 , what is its reported IC90?
OUT: > 50 µM (inactive)

IN: Given the compound CN1c2ccc(-c3ccc(F)cc3)cc2[C@H]2[C@H](CCN2C(=O)Nc2cc(F)ccc2F)[C@H]1CO , what is its reported IC90?
OUT: > 50 µM (inactive)

IN: Given the compound CN1c2ccc(-c3cccc(F)c3)cc2[C@H]2[C@H](CCN2C(=O)CCCCCCC(=O)O)[C@H]1CO , what is its reported IC90?
OUT: > 50 µM (inactive)

IN: Given the compound CNS(=O)(=O)c1ccc(N2CCN(C(=O)c3ccc4c(c3)OCO4)CC2)cc1 , what is its reported IC90?
OUT: > 50 µM (inactive)

IN: Given the compound COC(=O)CCCCCCC(=O)N1CC[C@@H]2[C@@H](CO)N(C)c3ccc(-c4cccc(F)c4)cc3[C@@H]21 , what is its reported IC90?
OUT: > 50 µM (inactive)

IN: Given the compound CN1c2ccc(-c3cccc(F)c3)cc2[C@H]2[C@H](CCN2C(=O)Nc2ccccc2F)[C@H]1CO , what is its reported IC90?
OUT: > 50 µM (inactive)

IN: Given the compound COCC(=O)N1CC[C@@H]2[C@@H](CO)N(C)c3ccc(-c4cccc(F)c4)cc3[C@@H]21 , what is its reported IC90?
OUT: > 50 µM (inactive)

IN: Given the compound CN(C)C(=O)c1ccc(N2CCN(C(=O)c3ccc4c(c3)OCO4)CC2)cc1 , what is its reported IC90?
OUT: > 50 µM (inactive)

IN: Given the compound COc1ccccc1NC(=O)N1CC[C@@H]2[C@@H](CO)N(C)c3ccc(-c4cccc(F)c4)cc3[C@@H]21 , what is its reported IC90?
OUT: > 50 µM (inactive)

IN: Given the compound CN1c2ccc(-c3cccc(F)c3)cc2[C@H]2[C@H](CCN2C(=O)Cc2cccnc2)[C@H]1CO , what is its reported IC90?
OUT: > 50 µM (inactive)

IN: Given the compound CN1c2ccc(-c3cccc(F)c3)cc2[C@H]2[C@H](CCN2C(=O)c2ccc3c(c2)OCO3)[C@@H]1CO , what is its reported IC90?
OUT: > 50 µM (inactive)
